Hi there, I'd appreciate the recorded %Inh for every entry that follows.
system: NDR2; conditions: concentration: 1 μM, replicates: in singlicate; n = 1;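 note: KINOMEscan kinase panel screen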
Answers are plain numbers, in %.

// solved cases for %Inh follow
>>> result_number("Cl.c1ccc(Cn2cnc3cc(Nc4ncnc5ccccc45)ccc32)cc1")
4
>>> result_number("O=C(NCCNc1ccnc(Nc2ccc(F)cc2)n1)Nc1ccc2c(c1)OCO2")
20
>>> result_number("Cc1nc(N(C)[C@H]2CN(C(=O)CC#N)CC[C@H]2C)c2cc[nH]c2n1")
13
>>> result_number("COC(=O)c1c(-c2ccccc2)c2cc(Br)ccc2c(=O)n1Cc1ccc(S(C)(=O)=O)cc1")
19
>>> result_number("CCC(=O)c1c(-c2ccccc2)c2cc(Cl)ccc2c(=O)n1Cc1cc(S(C)(=O)=O)n(CC(F)F)n1")
0
>>> result_number("Cc1nn2c(=O)cc(N3CCOCC3)nc2n1Cc1cccc(Cl)c1Cl")
0
>>> result_number("COc1cc2ncn(-c3cc(OCc4ccncc4Br)c(C(N)=O)s3)c2cc1OC")
17
>>> result_number("Nc1nccc2scc(-c3ccc4c(c3)CCN4C(=O)Cc3ccccc3)c12")
3
>>> result_number("COc1cccc(-n2cnc3c(N)ncnc32)c1")
12
>>> result_number("Cc1cccc(-c2nc(Nc3ccc4c(cnn4C)c3)c3ccccc3n2)n1")
68

Consider the following items and state reported %Inh for each.
1. COc1ccc(-c2coc3ccc(-c4nnc(SCc5cccc(C#N)c5)o4)cc23)cc1
2. O=C(Nc1n[nH]c2cc(-c3ccccc3F)ccc12)C1CC1
3. CCC(=O)c1c(-c2ccccc2)c2cc(Cl)ccc2c(=O)n1Cc1cc(C(=O)NC2CC2)n(C)n1
4. Cc1ccc(-c2ccc3c(ccc4sc5c(c43)NC[C@@H](C)N=C5N(C)C)n2)cn1
5. Cn1c(=O)c(F)c(Nc2ccc(I)cc2F)c2c(=O)n(OC[C@H](O)CO)cnc21
6. CCS(=O)c1ccc(-c2coc3ccc(-c4nnc(C)o4)cc23)cc1 (stereo not drawn)
7. COc1cc(Nc2nccc(N3CCC(NC(=O)C(C)c4ccc(Cl)cc4)C3)n2)cc(OC)c1OC (stereo not drawn)
8. COc1cc(Nc2nccc(N3CCC(NC(=O)C4COc5ccccc5O4)C3)n2)cc(OC)c1OC (stereo not drawn)

Response:
1. 0
2. 2
3. 0
4. 0
5. 3
6. 0
7. 0
8. 40

====

system: HIPK1; conditions: concentration: 1 μM, replicates: in singlicate; n = 1
Mark yes (1) only when %Inh stays strictly below 30%. Values equal to the cut-off are no (0).

Completed entries (count: 6):
>>> assigned_class("Cl.NS(=O)(=O)c1cccc(Nc2cc(-c3ccc(F)cc3)n[nH]2)c1")
"no (0)"
>>> assigned_class("COC(=O)c1c(-c2ccccc2)c2cc(Br)ccc2c(=O)n1Cc1ccc(S(C)(=O)=O)cc1")
"no (0)"
>>> assigned_class("COc1cc(Nc2nccc(N3CCC(NC(=O)C(C)c4ccc(Cl)cc4)C3)n2)cc(OC)c1OC (stereo not drawn)")
"yes (1)"
>>> assigned_class("CCC(=O)c1c(-c2ccccc2)c2cc(Cl)ccc2c(=O)n1Cc1cc(S(C)(=O)=O)n(CC(N)=O)n1")
"yes (1)"
>>> assigned_class("Fc1cccc(CSc2nnc(-c3ccc4c(c3)CCO4)o2)c1")
"yes (1)"
>>> assigned_class("CN1C(=O)C(Nc2ccccc2)=C(c2ccccc2)C1=O")
"yes (1)"

Query: Does CCS(=O)(=O)c1ccc(OC)c(Nc2ncc(-c3ccc(F)cc3)o2)c1.Cl have %Inh strictly under 30%?
Response: no (0)

Query: Report whether reported %Inh is lower than 30% (strictly) for CCC(=O)c1c(-c2ccccc2)c2cc(Cl)ccc2c(=O)n1Cc1cc(S(C)(=O)=O)n(CC(F)F)n1
Response: yes (1)

Query: Please indicate whether the reported %Inh of Cc1ccc(Oc2ccc(Nc3ncnc4cc[nH]c34)cc2C)cn1 is strictly below 30%.
Response: yes (1)
